System: CLK3;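 also: kd values determined as follow-up on hits from a single-replicate KINOMEscan panel screen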
pKd: −log10 of the molar value.

>  <Molecular String>
CC(=O)c1c(C)c2cnc(Nc3ccc(N4CCNCC4)cn3)nc2n(C2CCCC2)c1=O

>  <pKd>
< 5.00

$$$$

----------
Test system: NDR2;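 also: KINOMEscan kinase panel screen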
Conditions: concentration: 1 μM, replicates: in singlicate; n = 1
Overview of recorded %Inh for various compounds
Assay Metric: %Inh (%)

>  <Compound>
CC(=O)c1cccc(NC(=O)NC2CCN(c3ccnc(Nc4ccc(F)cc4)n3)C2)c1 (centres unmarked) [GSK1379710]

>  <Value Observed>
38

$$$$
>  <Compound>
Cc1c(Cn2c(C)c(C)n3c(=O)cc(N4CCOCC4)nc23)cccc1C(F)(F)F [GSK2328680]

>  <Value Observed>
2

$$$$
>  <Compound>
COc1cc2ncnc(Nc3cccc(Br)c3)c2cc1OC.Cl [GI230329]

>  <Value Observed>
12

$$$$
>  <Compound>
Cc1c(Cn2c3ccccc3n3c(=O)cc(N4CCOCC4)nc23)cccc1C(F)(F)F [GSK2306394]

>  <Value Observed>
58

$$$$
>  <Compound>
CNc1nc(-c2ccc3c(N)n[nH]c3c2)cc(N2C[C@@H](C(=O)NC3CCCCC3)OC[C@H]2C)n1 [GSK2375584]

>  <Value Observed>
28

$$$$
>  <Compound>
Cc1ccc(NC(=O)Nc2ccccc2)cc1-c1ccc(C(=O)Nc2ccncc2)cc1 [GSK1398471]

>  <Value Observed>
0

$$$$
>  <Compound>
O=C1NC(=O)C(c2ccc(Cl)cc2)=C1Nc1cccc(Cl)c1 [SB-317651]

>  <Value Observed>
0

$$$$
>  <Compound>
CNCc1ccc2nc(NC(=O)c3ccc(C(C)(C)C)cc3)cn2c1

>  <Value Observed>
3

$$$$
>  <Compound>
Fc1ccc(-c2nn3cccc(F)c3c2-c2ccncc2)cc1 [GW475620]

>  <Value Observed>
0

$$$$
>  <Compound>
COc1ccc(CSc2nnc(-c3ccc4ncsc4c3)o2)cc1C(F)(F)F

>  <Value Observed>
10

$$$$
>  <Compound>
CC(=O)c1c(C)c2cnc(Nc3ccc(N4CCNCC4)cn3)nc2n(C2CCCC2)c1=O

>  <Value Observed>
0

$$$$
>  <Compound>
Fc1ccc(-c2nc3n(c2-c2ccncc2)CCS3)cc1 [GI98581]

>  <Value Observed>
0

$$$$
>  <Compound>
O=C(Nc1n[nH]c2nc(-c3cccs3)c(Br)cc12)C1CC1 [SB-735297]

>  <Value Observed>
16

$$$$
>  <Compound>
Cc1ccc(NC(=O)Nc2ccc(Cl)cc2)cc1-c1ccc(C(=O)Nc2ccncc2)cc1 [GSK1398472]

>  <Value Observed>
0

$$$$
>  <Compound>
FC(F)(F)c1ccccc1-c1cc(-c2c[nH]nc2-c2ccccn2)ccn1 [GW679396]

>  <Value Observed>
0

$$$$
>  <Compound>
COC(=O)c1cccc(NC(=O)NC2CCN(c3ccnc(Nc4ccc(OC)cc4)n3)C2)c1 (centres unmarked) [GSK1379746]

>  <Value Observed>
0

$$$$
>  <Compound>
c1ccc(-c2ccnc3[nH]ccc23)cc1 [SB-693578]

>  <Value Observed>
12

$$$$
>  <Compound>
CN1c2ccc(-c3ccc(C(N)=O)cc3)cc2-c2[nH]ncc2S1(=O)=O

>  <Value Observed>
3

$$$$
>  <Compound>
CNc1nc(-c2ccc3c(N)n[nH]c3c2)cc(N2C[C@@H](C(=O)Nc3ccccc3)CC[C@H]2C)n1 [GSK2298859]

>  <Value Observed>
0

$$$$
>  <Compound>
Cc1ccc(NC(=O)Nc2ccc(Cl)c(C(F)(F)F)c2)cc1-c1ccc(C(=O)Nc2ccncc2)cc1 [GSK1398470]

>  <Value Observed>
0

$$$$
